Molecular target: recombinant human HDAC6 (Homo sapiens (Human), UniProt Q9UBN7)
Sequence (Q9UBN7 whole entry): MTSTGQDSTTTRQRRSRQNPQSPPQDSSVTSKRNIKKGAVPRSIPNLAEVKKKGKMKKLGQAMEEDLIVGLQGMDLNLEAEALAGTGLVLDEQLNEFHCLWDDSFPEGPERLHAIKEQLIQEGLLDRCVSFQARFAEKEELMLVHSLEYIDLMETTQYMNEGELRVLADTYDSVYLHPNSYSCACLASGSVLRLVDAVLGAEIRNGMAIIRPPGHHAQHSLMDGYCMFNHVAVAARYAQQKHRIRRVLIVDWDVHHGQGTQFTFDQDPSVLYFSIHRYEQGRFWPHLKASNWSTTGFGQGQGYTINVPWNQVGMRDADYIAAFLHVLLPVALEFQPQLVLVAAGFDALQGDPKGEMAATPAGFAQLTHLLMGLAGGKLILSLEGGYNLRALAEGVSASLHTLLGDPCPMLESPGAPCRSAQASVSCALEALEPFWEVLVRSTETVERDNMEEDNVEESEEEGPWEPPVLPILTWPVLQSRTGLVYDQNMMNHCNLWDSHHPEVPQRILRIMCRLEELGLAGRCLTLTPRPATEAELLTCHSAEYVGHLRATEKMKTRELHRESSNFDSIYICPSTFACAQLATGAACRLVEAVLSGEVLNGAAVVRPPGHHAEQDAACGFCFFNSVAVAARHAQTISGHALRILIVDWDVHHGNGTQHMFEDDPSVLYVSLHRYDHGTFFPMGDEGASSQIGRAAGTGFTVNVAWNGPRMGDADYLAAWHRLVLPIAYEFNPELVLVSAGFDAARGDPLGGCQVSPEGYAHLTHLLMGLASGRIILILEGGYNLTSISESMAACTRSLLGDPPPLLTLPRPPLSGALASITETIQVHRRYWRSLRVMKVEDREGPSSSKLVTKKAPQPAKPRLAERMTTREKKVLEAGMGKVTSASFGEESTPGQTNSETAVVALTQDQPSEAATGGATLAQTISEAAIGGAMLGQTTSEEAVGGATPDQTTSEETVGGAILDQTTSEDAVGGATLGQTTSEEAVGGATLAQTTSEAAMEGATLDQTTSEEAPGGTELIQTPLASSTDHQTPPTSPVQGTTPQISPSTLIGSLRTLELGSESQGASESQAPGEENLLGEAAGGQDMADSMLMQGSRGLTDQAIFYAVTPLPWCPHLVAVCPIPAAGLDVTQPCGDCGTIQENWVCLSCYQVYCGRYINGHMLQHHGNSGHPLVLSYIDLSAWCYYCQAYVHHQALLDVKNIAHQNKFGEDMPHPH
Assay: Enzymatic screening, HDAC6 inhibition (fluorogenic FdL_G substrate)
pIC50: −log10 of the molar value.
Experimental endpoint: pIC50

[[record]]
molecule = "Cn1c(N)nc2cc(-c3cn(Cc4ccc(-c5nnc(C(F)F)o5)cc4F)nn3)ccc21"
observed = 7.77

[[record]]
molecule = "CNc1ncc2cc(-c3cn(Cc4c(F)cc(-c5nnc(C(F)F)o5)cc4F)nn3)ccc2n1"
observed = 6.99

[[record]]
molecule = "CNc1ccc2cc(-c3nnn(Cc4ccc(-c5nnc(C(F)F)o5)c(F)c4)n3)ccc2n1"
observed = 6.93

[[record]]
molecule = "CC(c1ccc(-c2nnc(C(F)F)o2)cc1)n1cc(-c2ccc(N)nc2)nn1 (stereo not shown) [Compd. 158]"
observed = 7.14


----------
Experiment: Stability to Phase I metabolism in rat S9 liver fraction
Conditions: after 90 minutes, 37° C.
Experimental endpoint: residual percentage in RAT S9 FRACTION (%)

[[record]]
molecule = "O=C(Nc1cccc(-c2cn(Cc3ccc(-c4nnc(C(F)F)o4)cn3)nn2)c1)N1CCOCC1"
observed = 93

[[record]]
molecule = "Fc1cc(-c2nnc(C(F)F)o2)cc(F)c1Cn1cc(-c2cnc3cccnn23)nn1"
observed = 39

[[record]]
molecule = "Nc1ccc(-c2nnn(Cc3ccc(-c4nnc(C(F)F)o4)cc3)n2)cn1"
observed = 9

[[record]]
molecule = "O=C1NCc2ccc(-c3cn(Cc4ccc(-c5nnc(C(F)F)o5)cc4)nn3)cc21"
observed = 87

[[record]]
molecule = "Nc1ccc(-c2cnn(Cc3ccc(-c4nnc(C(F)F)o4)cn3)c2)cn1"
observed = 98

[[record]]
molecule = "Nc1ccc(-c2cn(C(CN3CCCC3)c3ccc(-c4nnc(C(F)F)o4)cc3)nn2)cn1 (centres unmarked)"
observed = 96

[[record]]
molecule = "Fc1cc(-c2nnc(C(F)F)o2)cc(F)c1Cn1cc(-c2cccs2)nn1"
observed = 10

[[record]]
molecule = "FC(F)c1nnc(-c2ccc(Cn3cc(-c4ccc(NC5=NCCN5)cc4)nn3)cc2)o1"
observed = 95


----------
Molecular target: recombinant human HDAC6 (Homo sapiens (Human))
Assay: Enzymatic screening, HDAC6 inhibition (fluorogenic FdL_G substrate)
Experimental endpoint: IC50 (nM)

[[record]]
compound = "O=C(Nc1cccc(-c2nc(Cc3ccc(-c4nnc(C(F)F)o4)cc3)no2)c1)N1CCOCC1"
experimental_endpoint = "IC50"
display_unit = "nM"
observed = 178

[[record]]
compound = "O=C1Nc2ccc(-c3cn(Cc4ccc(-c5nnc(C(F)F)o5)cn4)nn3)cc2C12CCCC2"
experimental_endpoint = "IC50"
display_unit = "nM"
observed = 8

[[record]]
compound = "O=C1Nc2ccc(-c3cn(Cc4ccc(-c5nnc(C(F)F)o5)cn4)nn3)cc2[C@@]12CCNC2 (single isomer, unassigned)"
experimental_endpoint = "IC50"
display_unit = "nM"
observed = 22

[[record]]
compound = "Fc1cc(-c2nnc(C(F)F)o2)cc(F)c1Cn1cc(-c2ccc(CN3CC(C(F)(F)F)C3)cc2)nn1"
experimental_endpoint = "IC50"
display_unit = "nM"
observed = 151

[[record]]
compound = "CC(=O)Nc1cccc(-c2cn(Cc3ccc(-c4nnc(C(F)F)o4)cc3)nn2)c1"
experimental_endpoint = "IC50"
display_unit = "nM"
observed = 55


From: patent US20230286970A1
